test-target: human recombinant Aurora B (Homo sapiens (Human))
protocol-notes: Aurora B Kinase Biochemical Assay (ADP-Glo)
measurement-context: ratio of Aurora B IC50 to PLK4 IC50 (selectivity)
property: [Aurora B IC50 (nM)]/[PLK4 IC50 (nM)]

{"compound": "COc1ccc2c(c1)[C@]1(C[C@H]1c1ccc3c(Nc4cnc(C(=O)N(C)C)cc4OC)n[nH]c3c1)C(=O)N2 [Example 253]", "property": "[Aurora B IC50 (nM)]/[PLK4 IC50 (nM)]", "measured": 88.7161}
{"compound": "COc1ccc2c(c1)[C@]1(C[C@H]1c1ccc3c(Nc4cc(N5CCS(=O)(=O)CC5)ncn4)n[nH]c3c1)C(=O)N2 [Example 39]", "property": "[Aurora B IC50 (nM)]/[PLK4 IC50 (nM)]", "measured": 1.018}
{"compound": "COc1ccc2c(c1)[C@]1(C[C@H]1c1ccc3c(Nc4nc(C5COC5)cnc4OC)n[nH]c3c1)C(=O)N2 [Example 100]", "property": "[Aurora B IC50 (nM)]/[PLK4 IC50 (nM)]", "measured": 230.4498}
{"compound": "COc1ccc2c(c1)[C@]1(C[C@H]1c1ccc3c(Nc4ccc(C(=O)N5CC(F)(F)C5)nc4OC)n[nH]c3c1)C(=O)N2 [Example 184]", "property": "[Aurora B IC50 (nM)]/[PLK4 IC50 (nM)]", "measured": 7144.8985}

I. COc1ccc2c(c1)[C@]1(C[C@H]1c1ccc3c(Nc4nc(C)nc(N5C[C@@H](C)O[C@@H](C)C5)c4OC)n[nH]c3c1)C(=O)N2 [Example 67]
II. COc1ccc2c(c1)[C@]1(C[C@H]1c1ccc3c(Nc4ncc(S(=O)(=O)C(C)C)cc4OC)n[nH]c3c1)C(=O)N2 [Example 248]
III. COc1ccc2c(c1)[C@]1(C[C@H]1c1ccc3c(Nc4cc(C(=O)N(C)C)ncc4OC)n[nH]c3c1)C(=O)N2 [Example 198]
Query: Please list the entries, largest [Aurora B IC50 (nM)]/[PLK4 IC50 (nM)] first. Answer by listing the labels in the order asked for.
Response: III, I, II
(III: 5752.4160, I: 499.9255, II: 206.5375)

====

test-target: human recombinant Aurora B (Homo sapiens (Human), UniProt Q96GD4)
Sequence (Q96GD4 whole entry): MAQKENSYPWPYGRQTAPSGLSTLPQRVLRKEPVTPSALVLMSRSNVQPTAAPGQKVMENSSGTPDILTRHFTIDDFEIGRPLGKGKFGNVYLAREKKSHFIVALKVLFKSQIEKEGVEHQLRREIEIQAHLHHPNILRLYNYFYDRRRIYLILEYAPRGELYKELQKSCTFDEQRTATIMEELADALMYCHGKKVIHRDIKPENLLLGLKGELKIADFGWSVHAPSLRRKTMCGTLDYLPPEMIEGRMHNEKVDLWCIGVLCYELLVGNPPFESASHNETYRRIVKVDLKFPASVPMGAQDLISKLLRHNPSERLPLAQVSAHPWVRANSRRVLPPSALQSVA
protocol-notes: Aurora B Kinase Biochemical Assay (ADP-Glo)
measurement-context: ratio of Aurora B IC50 to PLK4 IC50 (selectivity)
property: [Aurora B IC50 (nM)]/[PLK4 IC50 (nM)]

// known answers, use as guide
{"entry-smiles": "COc1ccc2c(c1)[C@]1(C[C@H]1c1ccc3c(Nc4nc(C)ncc4OC(C)C)n[nH]c3c1)C(=O)N2", "test-target": "human recombinant Aurora B (Homo sapiens (Human), UniProt Q96GD4)", "[Aurora B IC50 (nM)]/[PLK4 IC50 (nM)]": 979.4132}
{"entry-smiles": "COc1ccc2c(c1)[C@]1(C[C@H]1c1ccc3c(Nc4ncccc4OC)n[nH]c3c1)C(=O)N2", "test-target": "human recombinant Aurora B (Homo sapiens (Human), UniProt Q96GD4)", "[Aurora B IC50 (nM)]/[PLK4 IC50 (nM)]": 34.9}
{"entry-smiles": "COc1ccc2c(c1)[C@@]1(C[C@@H]1c1ccc3c(Nc4ncncc4OC)n[nH]c3c1)C(=O)N2", "test-target": "human recombinant Aurora B (Homo sapiens (Human), UniProt Q96GD4)", "[Aurora B IC50 (nM)]/[PLK4 IC50 (nM)]": 32.99}
{"entry-smiles": "COc1ccc2c(c1)[C@]1(C[C@H]1c1ccc3c(Nc4ncnc(N5CCCOCC5)c4OC)n[nH]c3c1)C(=O)N2", "test-target": "human recombinant Aurora B (Homo sapiens (Human), UniProt Q96GD4)", "[Aurora B IC50 (nM)]/[PLK4 IC50 (nM)]": 45.11}
{"entry-smiles": "COc1ccc2c(c1)[C@]1(C[C@H]1c1ccc3c(Nc4nc(C)nc(N5CC(O)C5)c4OC)n[nH]c3c1)C(=O)N2", "test-target": "human recombinant Aurora B (Homo sapiens (Human), UniProt Q96GD4)", "[Aurora B IC50 (nM)]/[PLK4 IC50 (nM)]": 346.7708}

P. COc1ccc2c(c1)[C@]1(C[C@H]1c1ccc3c(Nc4nc(N5CC(O)C5)ncc4Cl)n[nH]c3c1)C(=O)N2
Q. COc1ccc2c(c1)[C@]1(C[C@H]1c1ccc3c(Nc4cc(C(C)(C)O)cnc4OC)n[nH]c3c1)C(=O)N2
R. COc1ccc2c(c1)[C@]1(C[C@H]1c1ccc3c(Nc4ncnc(N5CCOCC5)c4OC(F)F)n[nH]c3c1)C(=O)N2
S. COc1ccc2c(c1)[C@]1(C[C@H]1c1ccc3c(Nc4cc(C(C)C)nnc4OC)n[nH]c3c1)C(=O)N2
T. COc1ccc2c(c1)[C@]1(C[C@H]1c1ccc3c(Nc4ncc(S(=O)(=O)N(C)C5(C)COC5)cc4OC)n[nH]c3c1)C(=O)N2
Query: Please list the entries, largest [Aurora B IC50 (nM)]/[PLK4 IC50 (nM)] first. Answer by listing the labels in the order asked for.
Response: R, T, S, P, Q

1. COc1ccc2c(c1)[C@]1(C[C@H]1c1ccc3c(Nc4nc(C5CC5)nc(N5CCS(=O)(=O)CC5)c4OC)n[nH]c3c1)C(=O)N2
2. COc1ccc2c(c1)[C@]1(C[C@H]1c1ccc3c(Nc4nc(C(C)C)ncc4OC(F)F)n[nH]c3c1)C(=O)N2
3. COc1ccc2c(c1)[C@]1(C[C@H]1c1ccc3c(Nc4nc5cccnc5cc4OC)n[nH]c3c1)C(=O)N2
4. COc1ccc2c(c1)[C@]1(C[C@H]1c1ccc3c(Nc4cc(C(=O)N5CCOCC5)ccc4OC)n[nH]c3c1)C(=O)N2
Query: Please list the entries, largest [Aurora B IC50 (nM)]/[PLK4 IC50 (nM)] first. Answer by listing the labels in the order asked for.
Response: 4, 2, 1, 3
(4: 1996.8465, 2: 1337.0280, 1: 480.7112, 3: 170.9840)
